target: Gal3S(b1-3)GalNAc; experiment: glycan array binding signal (z-score within array); higher = stronger binding; conditions: glycan notation: IUPAC condensed, linker removed
Shown is part of a subset that was picked to be rich in the strongest signals.
Would you mind telling me the reported glycan array binding signal (z-score) of each entry?

Ask | I am curious: what glycan array binding signal (z-score) value has been reported for LICBM33A (Lactococcus lactis), Q9CE94 (protein) MKKLLTGLLVAAGLLSVSLLIKTDTVSAHGYVQSPPARGYQGQLDSQSLGWTAAFNIYGNVISNPQSLEAPKGFPECGPADGRIASANGGLGQIGDFVLDNQTSSRWKKTSISTGSNIFTWKYTAPHKTTKWHYYMTKTGWDQNAPLKHSELELIGTINHDGSPATNNLSHTINIPTDRSGYHIVLAVWDVADTSNAFYNVIDINVNNKNASSQVFGPFL ?
Reply | -0.215

Ask | I am curious: what glycan array binding signal (z-score) value has been reported for CLC (Homo sapiens), Q9UBD9 (protein) MDLRAGDSWGMLACLCTVLWHLPAVPALNRTGDPGPGPSIQKTYDLTRYLEHQLRSLAGTYLNYLGPPFNEPDFNPPRLGAETLPRATVDLEVWRSLNDKLRLTQNYEAYSHLLCYLRGLNRQAATAELRRSLAHFCTSLQGLLGSIAGVMAALGYPLPQPLPGTEPTWTPGPAHSDFLQKMDDFWLLKELQTWLWRSAKDFNRLKKKMQPPAAAVTLHLGAHGF ?
Reply | -0.144

Ask | I am curious: what glycan array binding signal (z-score) value has been reported for C-Reactive Protein (Homo sapiens), P02741 (protein) MEKLLCFLVLTSLSHAFGQTDMSRKAFVFPKESDTSYVSLKAPLTKPLKAFTVCLHFYTELSSTRGYSIFSYATKRQDNEILIFWSKDIGYSFTVGGSEILFEVPEVTVAPVHICTSWESASGIVEFWVDGKPRVRKSLKKGYTVGAEASIILGQEQDSFGGNFEGSQSLVGDIGNVNMWDFVLSPDEINTIYLGGPFSPNVLNWRALKYEVQGEVFTKPQLWP ?
Reply | 0.199

Ask | I am curious: what glycan array binding signal (z-score) value has been reported for Flo5 (Saccharomyces cerevisiae), P38894 (protein) MGSSHHHHHHSSGLVPRGSHMSGATEACLPAGQRKSGMNINFYQYSLKDSSTYSNAAYMAYGYASKTKLGSVGGQTDISIDYNIPCVSSSGTFPCPQEDSYGNWGCKGMGACSNSQGIAYWSTDLFGFYTTPTNVTLEMTGYFLPPQTGSYTFSFATVDDSAILSVGGSIAFECCAQEQPPITSTNFTINGIKPWDGSLPDNITGTVYMYAGYYYPLKVVYSNAVSWGTLPISVELPDGTTVSDNFEGYVYSFDDDLSQSNCTIPDPSIH ?
Reply | -0.17

Ask | I am curious: what glycan array binding signal (z-score) value has been reported for HFR-3 (Triticum aestivum) (protein) MKGLLLCALALAFAAVTTHAQLQSCPTRCGKQADGMECPNNLCCSKDGYCGLGVDYCSAGAGCQSGACYDNKICGAQANGTLCRNNHCCSSGGRCGYGREYCSNGCQGGPCWADLKCGHLDNGKLCPNNLCCSQYGYCGLGPEFCGTGCQNGACSTDKPCGNKANGAPCTNNYCCSQYGSCGLGKDYCGTGCQNGACN ?
Reply | 1.67

Measured values drawn from the supplement of paper PMC8728848 for this set.
